tested on: MDR1-MDCK cell monolayers; assay: Blood-brain-barrier (BBB) penetration potential via MDCK-MDR1 permeability assay; details: B-A direction
Assay Readout: MDCK-MDR1: % Recov B-A (%)
Output spec: scalar in %, unitless text.

query: Entry CN(c1ccc(-c2ccc(-c3cn[nH]c3)cc2O)nn1)[C@H]1C[C@@H]2CC[C@@H](N2)[C@H]1F (single isomer, unassigned) [Compound 42B] needs its MDCK-MDR1: % Recov B-A filled in; supply it.
result: 73

query: Fill in reported MDCK-MDR1: % Recov B-A for this entry: CN(c1ccc(-c2cc3occc(=O)c3cc2O)nn1)[C@H]1C[C@@H]2CC[C@@H](N2)[C@H]1F [Compound 43B]
result: 48

Continuing:
query: Could you please provide reported MDCK-MDR1: % Recov B-A for CN(c1ccc(-c2cc3cccnc3cc2O)nn1)[C@@H]1C[C@H]2CCC[C@H](N2)[C@@H]1F [Compound 41A] ? Thanks!
result: 98

query: Let me know recorded MDCK-MDR1: % Recov B-A for "CN(c1ccc(-c2ccc(-n3ccnc3)cc2O)nn1)[C@H]1C[C@@H]2CC[C@@H](N2)[C@H]1F" , thanks.
result: 85

Cited source for all entries: patent US12509460B2
